- measurementTarget: PDGFRα (Homo sapiens (Human))
- Sequence (P16234 24-1089): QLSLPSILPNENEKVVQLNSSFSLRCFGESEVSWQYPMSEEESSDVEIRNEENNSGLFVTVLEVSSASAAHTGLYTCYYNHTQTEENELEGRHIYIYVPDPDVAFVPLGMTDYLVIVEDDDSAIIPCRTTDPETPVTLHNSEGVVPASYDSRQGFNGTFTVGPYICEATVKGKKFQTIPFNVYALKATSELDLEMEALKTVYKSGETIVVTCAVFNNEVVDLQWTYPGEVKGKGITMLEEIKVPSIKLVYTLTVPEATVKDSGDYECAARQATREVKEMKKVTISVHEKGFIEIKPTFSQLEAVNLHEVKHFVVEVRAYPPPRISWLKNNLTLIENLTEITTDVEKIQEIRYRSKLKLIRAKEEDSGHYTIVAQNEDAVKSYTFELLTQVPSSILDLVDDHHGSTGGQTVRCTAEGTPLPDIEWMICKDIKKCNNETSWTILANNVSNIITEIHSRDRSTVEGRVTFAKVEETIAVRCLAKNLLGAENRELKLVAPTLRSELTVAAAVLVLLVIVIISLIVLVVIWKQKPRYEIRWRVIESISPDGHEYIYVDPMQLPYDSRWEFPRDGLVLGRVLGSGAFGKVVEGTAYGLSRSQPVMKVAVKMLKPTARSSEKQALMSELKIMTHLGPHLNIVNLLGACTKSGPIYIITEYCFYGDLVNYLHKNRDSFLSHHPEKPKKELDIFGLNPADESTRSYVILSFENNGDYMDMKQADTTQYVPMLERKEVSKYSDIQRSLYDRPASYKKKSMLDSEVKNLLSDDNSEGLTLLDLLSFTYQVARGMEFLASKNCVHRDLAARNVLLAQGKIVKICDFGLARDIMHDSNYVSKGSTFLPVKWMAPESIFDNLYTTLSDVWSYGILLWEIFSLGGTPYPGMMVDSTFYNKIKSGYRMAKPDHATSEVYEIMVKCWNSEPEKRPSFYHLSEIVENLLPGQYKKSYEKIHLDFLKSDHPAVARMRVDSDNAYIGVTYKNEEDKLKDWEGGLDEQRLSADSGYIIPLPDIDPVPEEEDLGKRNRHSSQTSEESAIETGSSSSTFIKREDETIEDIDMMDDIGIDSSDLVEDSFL
- protocolSummary: PDGFRα kinase enzyme assay (Promega PDGFRα Kinase Enzyme System, ADP-Glo)
- Format: biochemical
- cond: 11-point dose response, 10,000 nM to 0.169 nM; 150 uM ATP; BLQ = below limit of quantitation; read-out: IC50 Values on PDGFRα Kinase Inhibition, IC50
pIC50: −log10 of the molar value.
Below, each entry is listed with its recorded pIC50.
quantity: pIC50

INSERT INTO assay_data (compound, measurementtarget, boundtype, endpointresult) VALUES
  ('COCCn1cc(-c2ccn3c(N(C)CCN(C)C(=O)OC(C)(C)C)cnc3n2)cn1 [Compound 109]', 'PDGFRα (Homo sapiens (Human))', '<', 5.00),
  ('[2H]c1c([2H])c([2H])c(C([2H])([2H])c2cnc(N3CCN(c4cnn5cc(-c6cnn(C)c6)ccc45)CC3)nc2)c([2H])c1[2H] [Compound 82]', 'PDGFRα (Homo sapiens (Human))', '=', 5.60),
  ('Cn1cc(-c2ccc3c(N4CCN(c5nsc(Cc6ccccc6)n5)CC4)cnn3c2)cn1 [Compound 154]', 'PDGFRα (Homo sapiens (Human))', '=', 6.16),
  ('Cn1cc(-c2cnn3c(N4CCN(C(=O)NCc5ccc(C(F)(F)F)cc5)CC4)cnc3c2)cn1 [Compound 295]', 'PDGFRα (Homo sapiens (Human))', '=', 7.50),
  ('CCC(O)c1ccc2c(N3CCN(C(=O)OC(C)(C)C)CC3)cnn2c1 (centres unmarked) [Compound 298]', 'PDGFRα (Homo sapiens (Human))', '<', 5.00),
  ('Cn1cc(-c2ccn3c(N4CCN(c5ncc(Cc6ccccc6)cn5)CC4)cnc3n2)cn1 [Compound 121]', 'PDGFRα (Homo sapiens (Human))', '=', 6.09),
  ('Cn1cc(-c2ccc3c(N4CCN(C(=O)OCc5ccccc5C#N)CC4)cnn3c2)cn1 [Compound 281]', 'PDGFRα (Homo sapiens (Human))', '=', 6.52),
  ('C[C@@H](OC(=O)N1CCN(c2cnn3cc(-c4cnn(C)c4)ncc23)CC1)c1ccccc1 [Compound 49]', 'PDGFRα (Homo sapiens (Human))', '=', 7.23),
  ('Cn1cc(-c2ccc3c(NCC(=O)Nc4ncc(Cc5ccccc5)cn4)cnn3c2)cn1 [Compound 244]', 'PDGFRα (Homo sapiens (Human))', '=', 5.67),
  ('Cn1cc(-c2ccc3c(N4CCN(c5ncc(Cc6ccccc6)cn5)CC4)cnn3n2)cn1 [Compound 8]', 'PDGFRα (Homo sapiens (Human))', '=', 5.77),
  ('Cn1cc(-c2ccc3c(N4CCN(c5ncc(Cc6cccs6)cn5)CC4)cnn3c2)cn1 [Compound 178]', 'PDGFRα (Homo sapiens (Human))', '=', 5.68),
  ('CN1CCC(COC(=O)N2CCN(c3cnn4cc(-c5cnn(C)c5)ccc34)CC2)CC1 [Compound 20]', 'PDGFRα (Homo sapiens (Human))', '<', 5.00),
  ('CC(C)(C)OC(=O)N1CCN(c2cnn3cc(-c4ccccn4)ccc23)CC1 [Compound 216]', 'PDGFRα (Homo sapiens (Human))', '=', 6.00),
  ('C[C@@H](OC(=O)N1CCN(c2cnn3cc(-c4cnn(C)c4)ccc23)CC1)c1ccc2ccccc2c1 [Compound 312]', 'PDGFRα (Homo sapiens (Human))', '=', 6.84),
  ('CC(=O)OC(c1ccc(F)cc1)c1cnc(N2CCN(c3cnn4cc(-c5cnn(C)c5)ccc34)CC2)nc1 (centres unmarked) [Compound 264]', 'PDGFRα (Homo sapiens (Human))', '=', 7.57),
  ('CC1CN(C(=O)OC(C)(C)C)CCN1c1cnn2cc(-c3cnn(C)c3)ccc12 (centres unmarked) [Compound 240]', 'PDGFRα (Homo sapiens (Human))', '=', 5.03),
  ('Cn1cc(-c2ccc3c(C4CCC(CCc5ccccc5)CC4)cnn3c2)cn1 (centres unmarked) [Compound 141]', 'PDGFRα (Homo sapiens (Human))', '<', 5.00),
  ('CC1CN(c2cnn3cc(-c4cnn(C)c4)ccc23)CCN1c1ncc(Cc2ccccc2)cn1 (centres unmarked) [Compound 143]', 'PDGFRα (Homo sapiens (Human))', '=', 6.21),
  ('Cn1cc(-c2ccc3c(N4CCN(c5ncc(CC6CCCCO6)cn5)CC4)cnn3c2)cn1 (centres unmarked) [Compound 184]', 'PDGFRα (Homo sapiens (Human))', '=', 6.90),
  ('Cn1cc(-c2cn3ncc(N4CCN(C(=O)OC(C)(C)C)CC4)c3cn2)cn1 [Compound 44]', 'PDGFRα (Homo sapiens (Human))', '=', 6.19),
  ('C[C@@H](OC(=O)N1CCN(c2cnn3cc(-c4cnn(C)c4)ccc23)CC1)C1CCCCC1 [Compound 57]', 'PDGFRα (Homo sapiens (Human))', '=', 5.25),
  ('CN1CCC(OC(=O)N2CCN(c3cnn4cc(-c5cnn(C)c5)ccc34)CC2)CC1 [Compound 19]', 'PDGFRα (Homo sapiens (Human))', '<', 5.00),
  ('Cn1cc(-c2ccc3c(N4CCN(C(=O)OC5CCC5)CC4)cnn3c2)cn1 [Compound 32]', 'PDGFRα (Homo sapiens (Human))', '=', 6.49),
  ('Cn1cc(-c2ccc3c(N4CCN(S(=O)(=O)N5CCCCC5)CC4)cnn3c2)cn1 [Compound 157]', 'PDGFRα (Homo sapiens (Human))', '=', 5.68),
  ('Cn1cc(-c2cc3ncc(N4CCCN(C(=O)OC(C)(C)C)CC4)n3cn2)cn1 [Compound 85]', 'PDGFRα (Homo sapiens (Human))', '=', 5.80),
  ('Cn1cc(-c2ccc3c(N4CCN(C(=O)OC5CCOCC5)CC4)cnn3c2)cn1 [Compound 39]', 'PDGFRα (Homo sapiens (Human))', '<', 5.00),
  ('C[C@@H](OC(=O)N1CCN(c2cnc3nc(-c4cnn(C)c4)ccn23)CC1)c1ccccc1 [Compound 116]', 'PDGFRα (Homo sapiens (Human))', '=', 5.19),
  ('C[C@@H](OC(=O)N1CCN(c2cnn3cc(-c4cnn(C)c4)ccc23)CC1)c1ccc(Cl)cc1Cl [Compound 270]', 'PDGFRα (Homo sapiens (Human))', '=', 6.80),
  ('Cn1cc(-c2ccc3c(N4CCCN(c5ncc(Cc6ccccc6)cn5)CC4)cnn3c2)cn1 [Compound 37]', 'PDGFRα (Homo sapiens (Human))', '=', 6.17),
  ('Cn1cc(-c2ccc3c(N4CCN(C5=NCC(c6ccccc6)O5)CC4)cnn3c2)cn1 (centres unmarked) [Compound 56]', 'PDGFRα (Homo sapiens (Human))', '=', 5.84),
  ('Cn1cc(-c2ccc3c(N4CCN(c5ncc(C(C)(N)c6ccc(F)cc6)cn5)CC4)cnn3c2)cn1 (centres unmarked) [Compound 35]', 'PDGFRα (Homo sapiens (Human))', '=', 5.68),
  ('Cn1cc(-c2ccc3c(N4CCN(S(=O)(=O)CCc5ccccc5)CC4)cnn3c2)cn1 [Compound 160]', 'PDGFRα (Homo sapiens (Human))', '=', 5.01);
